Where do these numbers come from? They come from patent US20100260765A1.

target: T1, soluble KDR Ig4-7 domain (human, UniProt P35968 328-764); assay: ELISA, KDR Ig4-7 coat (1:1 diln.), antibody 0.1 ug/mL
T1 construct: domain: Ig4-7 domain; also called b-KDRIg4-7-myc-his; Ig4-7 domain of KDR; not shown: myc-his tag of the pSecTag construct
T1 sequence (P35968 328-764): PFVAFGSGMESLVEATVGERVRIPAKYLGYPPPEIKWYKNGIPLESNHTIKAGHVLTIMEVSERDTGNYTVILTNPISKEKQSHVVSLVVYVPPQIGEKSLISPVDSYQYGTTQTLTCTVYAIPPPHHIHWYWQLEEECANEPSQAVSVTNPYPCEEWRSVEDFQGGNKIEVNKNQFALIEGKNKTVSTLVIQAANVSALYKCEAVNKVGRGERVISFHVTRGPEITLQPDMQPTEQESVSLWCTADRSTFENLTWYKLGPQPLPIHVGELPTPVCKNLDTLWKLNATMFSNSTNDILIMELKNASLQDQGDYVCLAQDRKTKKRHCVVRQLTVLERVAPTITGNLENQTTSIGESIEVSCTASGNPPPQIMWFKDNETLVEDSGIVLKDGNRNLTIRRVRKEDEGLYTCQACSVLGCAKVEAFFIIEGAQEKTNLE
Known ELISA reading of a selection of binders
experimental endpoint: ELISA reading

| binder | readout value |
| --- | --- |
| 33B1 (antibody, V domains shown, Fully human monoclonal antibody from a XenoMouse hybridoma (IgG2 or IgG4 strain), purified) VH: EVQLVESGGGLVKPGGSLRLSCAASGFTFSSYTMNWVRQAPGKGLEWVSFIDSRSSYIYYADSVKGRFTISRDNAKNSLYLQMNSLRAEDTAVYYCSKDDWFEELWGQGTLVTVSS VL: DIQMTQSPSSLSASVGDRVTITCRASQGIRNDLGWYQQKPGKAPKRLIYATSSLQSGVPSRFSGSGSGTEFTLTISSLQPEDFATYYCLHHNSFPWTFGQGTKVEIK | 2.14 |
| 29H3 (antibody, V domains shown, Fully human monoclonal antibody from a XenoMouse hybridoma (IgG2 or IgG4 strain), purified) VH: QVQLVQSGAEVKKPGASVKVSCKASGYTFTSYDINWVRQATGQGLEWMGWMNPNSGKTGYAQKFQGRVTMTRNTSINTAYMELSSLRSEDTAVYYCARGGYSNLGWFDPWGQGTLVTVSS VL: DIQMTQSPSSVSASVGDRVTITCRASQGISSWLVWYHQKPGKAPKLLIYGASSLQSGVPSRFSGSGSGTDFTLTISSLQPEDFATYYCQQANNFPFTFGPGTKVDIK | 2.36 |
| 32G7 (antibody, V domains shown, Fully human monoclonal antibody from a XenoMouse hybridoma (IgG2 or IgG4 strain), purified) VH: EVQLVESGGGLVKPGGSLRLSCAASGFTISSYSMNWVRQAPGKGLEWVSFISSRSNYIYYADSVKGRFTISRDNAKNSLYLQMNSLRAEDTAVYYCSKDDWFEELWGQGTLVTVSS VL: DIQMTQSPSSLSASVGDRVTITCRASQDIRNDLGWYQQKPGKAPKRLIYAASSLQSGVPSRFSGSGSGTEFTLTISSLQPEDFATYYCLQHNSFPWTFGQGTKVEIK | 2.31 |
| 33E1 (antibody, V domains shown, Fully human monoclonal antibody from a XenoMouse hybridoma (IgG2 or IgG4 strain), purified) VH: QVQLQESGPGLVKPSQTLSLTCTVSGGSISSGDHYWSWIRQHPGKGLEWIGHIYYSGSTDYNPSLKSRVTISVDTSKNHFSLKLNSVTAADTAVYYCARTNSSSWSDWYFDLWGRGTLVTVSS VL: DIVMTQSPDSLAVSLGERATINCKSSQSILYSSNNKNYLAWYQRKPGQPPILLIHWASTRESGVPDRFSGSGSRTDFTLTISSLQAEDVAVYYCQQYFITPWTFGQGTKVEIK | 0.074 |
| 33C3 (antibody, V domains shown, Fully human monoclonal antibody from a XenoMouse hybridoma (IgG2 or IgG4 strain), purified) VH: QVQLVESGGGLVKPGESLRLSCAASGFTFSDYYMSWIRQAPGKGLEWVSYISHGGSTIYYADSVKGRFTISRDNAKNSLYLQMNSLRVEDTAVYFCARDDFWSGYYFNWFDPWGQGALVTVSS VL: DIQMTQYPLSLSASVGDRVTITCRASQSISSFLNWYHQKPGKAPKLLIYGTSSLQSGVPSRFSGSGSGTDFTLTISSLQPEDFATYYCQQTYSIPLTFGGGTNVEIK | 0.088 |
